tested on: Staphylococcus aureus; assay: Antibacterial activity against Staphylococcus aureus ATCC 25923 by disc diffusion method; assay type: functional
measured_attribute: MIC (µg/mL)
Number only, in µg/mL; omit the unit.

Request: Return reported MIC for target or system Staphylococcus aureus, item Cl.O=C1CCc2c(cccc2NC(=O)CN(Cc2ccccc2)Cc2ccccc2)N1 .
Result: 128

Request: Return reported MIC for target or system Staphylococcus aureus, item Cl.O=C1CCc2c(cccc2NC(=O)Cn2ccnc2)N1 .
Result: 16

Request: Return reported MIC for target or system Staphylococcus aureus, item Cl.O=C1CCc2c(cccc2NC(=O)CN2CCNCC2)N1 .
Result: 64

Request: Return reported MIC for target or system Staphylococcus aureus, item CCCN(CCC)CC(=O)Nc1cccc2c1CCC(=O)N2.Cl .
Result: 8

Request: Return reported MIC for target or system Staphylococcus aureus, item CN[C@@H]1[C@H](O[C@H]2[C@H](O[C@H]3[C@H](O)[C@@H](O)[C@H](N=C(N)N)[C@@H](O)[C@@H]3N=C(N)N)O[C@@H](C)[C@]2(O)C=O)O[C@@H](CO)[C@H](O)[C@H]1O .
Result: 32

Request: Return reported MIC for target or system Staphylococcus aureus, item Cl.O=C1CCc2c(cccc2NC(=O)CNCc2ccccc2)N1 .
Result: 32

Request: Return reported MIC for target or system Staphylococcus aureus, item Cl.O=C1CCc2c(cccc2NC(=O)Cn2cnc3ccccc32)N1 .
Result: 16

Request: Return reported MIC for target or system Staphylococcus aureus, item CC(C)(C)NCC(=O)Nc1cccc2c1CCC(=O)N2.Cl .
Result: 32

Request: Return reported MIC for target or system Staphylococcus aureus, item Cl.O=C1CCc2c(cccc2NC(=O)CN2CCCC2)N1 .
Result: 32

Request: Return reported MIC for target or system Staphylococcus aureus, item CCN(CC)CC(=O)Nc1cccc2c1CCC(=O)N2.Cl .
Result: 128

Request: Return reported MIC for target or system Staphylococcus aureus, item Cl.O=C1CCc2c(cccc2NC(=O)CN2CCCCC2)N1 .
Result: 32

Request: Return reported MIC for target or system Staphylococcus aureus, item Cl.O=C1CCc2c(cccc2NC(=O)CN(CCO)CCO)N1 .
Result: 128

Request: Return reported MIC for target or system Staphylococcus aureus, item Cl.O=C1CCc2c(cccc2NC(=O)CN2CCOCC2)N1 .
Result: 128

Request: Return reported MIC for target or system Staphylococcus aureus, item CC(C)(C)OC(=O)N1CCN(CC(=O)Nc2cccc3c2CCC(=O)N3)CC1.Cl .
Result: 64

---

system: Staphylococcus aureus; test: Antibacterial activity against methicillin-resistant Staphylococcus aureus N 315 by disc diffusion method; type: functional
measured_attribute: MIC (µg/mL)
Number only, in µg/mL; omit the unit.

Request: Please give measured MIC of the following entry: CCN(CC)CC(=O)Nc1cccc2c1CCC(=O)N2.Cl
Result: 64

Request: Please give measured MIC of the following entry: Cl.O=C1CCc2c(cccc2NC(=O)CN(CCO)CCO)N1
Result: 64

Request: Please give measured MIC of the following entry: CN[C@@H]1[C@H](O[C@H]2[C@H](O[C@H]3[C@H](O)[C@@H](O)[C@H](N=C(N)N)[C@@H](O)[C@@H]3N=C(N)N)O[C@@H](C)[C@]2(O)C=O)O[C@@H](CO)[C@H](O)[C@H]1O
Result: 512

Request: Please give measured MIC of the following entry: CCCN(CCC)CC(=O)Nc1cccc2c1CCC(=O)N2.Cl
Result: 64

Request: Please give measured MIC of the following entry: Cl.O=C1CCc2c(cccc2NC(=O)Cn2cnc3ccccc32)N1
Result: 32

Request: Please give measured MIC of the following entry: Cl.O=C1CCc2c(cccc2NC(=O)CN(Cc2ccccc2)Cc2ccccc2)N1
Result: 128

Request: Please give measured MIC of the following entry: Cl.O=C1CCc2c(cccc2NC(=O)CNCc2ccccc2)N1
Result: 256

Request: Please give measured MIC of the following entry: Cl.O=C1CCc2c(cccc2NC(=O)CN2CCCCC2)N1
Result: 64

Request: Please give measured MIC of the following entry: Cl.O=C1CCc2c(cccc2NC(=O)Cn2ccnc2)N1
Result: 64

Request: Please give measured MIC of the following entry: Cl.O=C1CCc2c(cccc2NC(=O)CN2CCCC2)N1
Result: 32

Request: Please give measured MIC of the following entry: Cl.O=C1CCc2c(cccc2NC(=O)CN2CCNCC2)N1
Result: 32

Request: Please give measured MIC of the following entry: Cl.O=C1CCc2c(cccc2NC(=O)CN2CCOCC2)N1
Result: 32

Request: Please give measured MIC of the following entry: CC(C)(C)NCC(=O)Nc1cccc2c1CCC(=O)N2.Cl
Result: 128

Request: Please give measured MIC of the following entry: CC(C)(C)OC(=O)N1CCN(CC(=O)Nc2cccc3c2CCC(=O)N3)CC1.Cl
Result: 32

Data origin, for the record: ChEMBL document CHEMBL2069236
